# System: RARa homodimer (NR concentration 270 nM)
# procedure_details: PBM binding z-score (relative to random genomic background probes); higher = stronger binding; sequences stand for … in GC…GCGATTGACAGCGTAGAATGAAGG
Outcome label depends on PBM binding z-score relative to -0.2: at/above gives label 1, below gives label 0.

TCTTTTAGATCAACAGGAGGTTAAGAAAGATCGA :: label 1
CAAACTAGGTCAAGAGGTCAATGTCCGCTTCCCG :: label 1
GGAACGAGGGCAAAGTAGATAGCATCTGTCGACG :: label 0
CAAACAAGGTCAAGAGGTCAAAGTCCGCTTCCCG :: label 1
GCTGCTAGGTCAGGTTGTTCAGCTAACGGGTACG :: label 0

Shifting focus to the sequence that follows.
Could you tell me if the measured PBM binding z-score of `TCTAGCAGGACAGAGGGTCACTCAAGAGGTACGG` reaches -0.2 or more?
label 0

====

Give PBM binding z-score for every item shown.
# Tested on: THRa:RXRa (NR concentration 90 nM, RXRa partner concentration 90 nM)
# procedure_details: PBM binding z-score (relative to random genomic background probes); higher = stronger binding; sequences stand for … in GC…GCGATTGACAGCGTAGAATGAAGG
Numbers only.

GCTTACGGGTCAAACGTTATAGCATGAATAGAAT :: 2.24
CGTCCAAGGTCAATGCTAGGTCTGTGAAAGCATT :: 3.78
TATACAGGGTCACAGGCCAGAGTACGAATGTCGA :: 3.92
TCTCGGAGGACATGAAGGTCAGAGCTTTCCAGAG :: 2.28

Could you report PBM binding z-score for every entry in the following list?
1. ACTATTAGTTGACTTAGGGCAACCGTTACGACGC
2. TAGCCTAGGTCATGCGGGCAAGTATAGTGTCGGC
3. CCGACTGGGGCAAGGTTACCTTAACGCACAGCCA
4. TCTAGCAGGCCAGATGGTCACTCAAGAGGTACGG
5. ATACCAAGGTGATCGTGAGGTCGTTGAGACTAAC

1.53
2.89
2.07
-0.597
3.4

====

# Test system: LXRa homodimer (NR concentration 270 nM)
# procedure_details: PBM binding z-score (relative to random genomic background probes); higher = stronger binding; sequences stand for … in GC…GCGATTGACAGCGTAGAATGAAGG
property_measured: PBM binding z-score
Give bare numbers.

In the examples that follow, each entry is paired with its recorded PBM binding z-score.
TCTGCTAGGTCAGTTGGTAAGCTAACGAGCTGCC :: -1.01
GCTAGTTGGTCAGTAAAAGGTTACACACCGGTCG :: 0.582
CCTCGGAGGACAACAGGAGGTCAGAACTGCCAGA :: 1.93

Could you report PBM binding z-score for every entry in the following list?
1. TCACACAGGTGAAGGTAACTCAGGTACGCAGTCG
2. CCTTACGGGACACTGACAGGTTATAGCATTTGGA
3. TGAATGAGGTTAAAGTTCAGGGAACGTGGCGTCG
4. ATACGTAGGTTAGCTGGGGTCATTCAGACTAGGC
5. CCTCGGATGACAACAGGAGGTCAGAGCTGCCAGA
6. TGTCAAAGTTCAGAGGTAACGTAAGTATCCACAC
7. TCTTGTAGATGAATAGAGGTTAAGAAAGTGCGCT

1: -0.228; 2: 0.186; 3: 2.46; 4: 2.24; 5: 1.84; 6: 1.55; 7: 0.638

Could you report PBM binding z-score for every entry in the following list?
1. CCTCGGAGGACAACAGGAGGTGAGAGCTGCCAGA
2. GCTTGTAGATCAAGGATAAGAAAGACTAAGCTAA
3. AGAATGAGGTTAAGATGAGGGAAACAGAATACAT

1: -0.536; 2: -0.557; 3: 0.0375

Could you report PBM binding z-score for every entry in the following list?
1. CGAACTAGGTCATCCAGGACAGCGAATACATTGA
2. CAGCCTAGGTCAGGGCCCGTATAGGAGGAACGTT
3. ACTACCAGGCCAAGGGTCACTCAAGATTAGTCCG
4. CTACGAAGGTGAACAAGGTCGTTGATTACTATTC
5. CAGCCAAGGTCAGGGCCAGTATAGGAGGAACGTT
6. GCTCGGAGGACAAGGTCAGAGCTTTGTCCGTAGA

1: 0.58; 2: -0.61; 3: 0.63; 4: 0.18; 5: -0.277; 6: -0.543

Could you report PBM binding z-score for every entry in the following list?
1. GCTAGTTGGTCAGTTAAAGGTCACACACCGGTCG
2. ACTTACGGGTCCACGAGGTTATAGCACGCGTATA
3. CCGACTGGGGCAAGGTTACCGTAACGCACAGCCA

5.75
0.478
-0.449

Could you report PBM binding z-score for every entry in the following list?
1. TCTGGTAGATCAAAGGTTAAGAAAGCCGAAGCCT
2. GCTATTAGTTGAAAGGGGAACCGAATGATTCTCG
3. ATATGTAGATTACATCCGGGTCATTCAGGCTATG

1. 0.139
2. -0.112
3. 0.625

The sequence identified as `TATATAGGGTCAAAGGCCAGAGTACGAATGTCGA` registered its PBM binding z-score at 2.48

====

Give PBM binding z-score for every item shown.
# Tested on: PPARg:RXRa 90nM:30nM, anti-RXR (NR concentration 90 nM, RXRa partner concentration 30 nM)
# procedure_details: PBM binding z-score (relative to random genomic background probes); higher = stronger binding; sequences stand for … in GC…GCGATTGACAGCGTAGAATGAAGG
Give bare numbers.

TCTTGTAGATCAAGCAGGTTAGGAAAGCCTGAGT :: 1.62

Could you report PBM binding z-score for every entry in the following list?
1. ACCTCTAGGTAAGACTCAGTTCAGTGAAGAACGC
2. GGAACGAGGGCAAAGTGGATAGCATCTGTCGACG
3. CCGACTGGGGCAGAAAGGTTAGCATACCATCCGG
4. ATCTCTAGGTAAGACTCAGTTCAGTGTAGAACGC
5. TAGCCTAGGTAATGCGGGCCAGTATAGTGTCGGC
6. ACTCGGAGGAGAAAGGTCAGAGCTACGCCAGTGA
7. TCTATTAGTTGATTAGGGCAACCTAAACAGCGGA
8. GATACAGGGTCAGCTAGAAGCCAGAGTATGGAAA

[-0.257, 5.67, 0.958, 0.398, -0.655, 4.29, 2.86, 1.83]

Could you report PBM binding z-score for every entry in the following list?
1. CGTCCAAGGTCAAAGTTCAGTGAAGAGATGACGG
2. ATATGTAGGTTAAGGGTTATTCAGGTTGGTTCGC
3. ATACCCAGGTGATCGTGAGGTCGTTGATACTAAC
4. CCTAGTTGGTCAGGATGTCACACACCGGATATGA
5. TCTAGCAGGCCAGAGGGTCCCTCAAGAGGTACGG
6. GGAACGAGGGCAAGTTGATGGCAGAGTTTGATGG
7. AGAATGAGGTTATACGTACATCAGGGAAGAAAGT
8. ATATGTAGGTTACAACCGGGTCATTCAGGCTATG

8.24
9.75
0.317
0.424
0.873
0.602
1.66
4.61

Could you report PBM binding z-score for every entry in the following list?
1. ATCTCTAGGTAAAGATAGTTCAGTAAATGCAAAT
2. GCGACTGTGGCATCAGCAGGTTACCATAACTTAA
3. CCGAGTAGGTTATGGGGCATACAGGCAACGGTGA
4. CCTAGGAGGACAACAGGAGGTCAGAGCTGCCAGA
5. CGAACTAGGTCATAGACAGGACAGTGAATAGTAA

1: 0.563; 2: -0.487; 3: 4.38; 4: 0.192; 5: 5.68

Could you report PBM binding z-score for every entry in the following list?
1. TCCTATAGGTAAAGGTGAAAGTCGAACGATATGA
2. CGAACGACGGCATGAGTTGATAGCAAATGCCGAT
3. CGTCCAAGGTAAGCAGGTCAGTGAAAGCGACGTG
4. GCTCGGAGGACGAGGTCAGAGCTTTGTCCGTAGA

[3.96, -0.878, -0.154, 0.269]

====

# System: PPARg:RXRa IVT, anti-PPARg (NR concentration 270 nM, RXRa partner concentration 90 nM)
# procedure_details: PBM binding z-score (relative to random genomic background probes); higher = stronger binding; sequences stand for … in GC…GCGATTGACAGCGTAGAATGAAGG
property_measured: PBM binding z-score
Give bare numbers.

CCTCGGAGGACATAAGGTCAGAGCTGTCCGCTTT :: 0.303
TCTATCAGGCCAGAGGGTCACTCAAGAGGTACGG :: 1.3
AGCATGAGGTTACCAAAGATCAGGGAAACGCTTG :: 0.996
CCTTACGGGTTACTGACAGGTTATAGCATTTGGA :: 0.57
TCTTGTAGATCAACAGAGGTTAAGAAAGTGCGCT :: 0.862
ACGATTAGTTGACTTAGGGCAACCGATACGACGC :: 0.153

Could you report PBM binding z-score for every entry in the following list?
1. GCAGACAGGTGAAACACAGGTAACTCAGGGTGGC
2. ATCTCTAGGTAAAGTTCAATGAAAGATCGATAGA

[0.641, 3.05]

Could you report PBM binding z-score for every entry in the following list?
1. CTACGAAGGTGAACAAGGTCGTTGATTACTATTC
2. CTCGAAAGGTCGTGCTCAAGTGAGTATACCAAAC

[2.28, 1.58]
